System: CLL cells
PROTOCOL_NOTES: CLL cell cytotoxicity, MTS assay
Assay type: cell-based, human
TEST_PARAMETERS: CLL cells freshly isolated from patients, 72 hours, read-out: CLL ED50
pEC50: −log10 of the molar value.
ENDPOINT_NAME: pEC50

{"SUBSTANCE": "RQIKIWFQNRRMKWKK-C-LRVRLASHLRKLRKRLL [COG112]", "ASSAYED_TARGET": "CLL cells", "ENDPOINT_NAME": "pEC50", "REPORTED_MEASUREMENT": 5.85}
{"SUBSTANCE": "LRVRLASHLRKLRKRLL [COG133]", "ASSAYED_TARGET": "CLL cells", "ENDPOINT_NAME": "pEC50", "REPORTED_MEASUREMENT": 5.36}
{"SUBSTANCE": "LLRKRLKRLHSALRVRL [COG056]", "ASSAYED_TARGET": "CLL cells", "ENDPOINT_NAME": "pEC50", "REPORTED_MEASUREMENT": 4.89}
